Test system: MCF7
Assay: Cytotoxicity against human MCF7 cells assessed as reduction in cell viability after 24 hrs by MTS assay
Type: functional, cell-based
Conditions: MCF7, 24 h
pIC50: −log10 of the molar value.
EXPERIMENTAL READOUT: pIC50

• COc1c(-c2ccc(O)cc2)oc2cc(O)c(CC=C(C)C)c(O)c2c1=O = 5.14
• CC(C)=CCc1c(O)ccc(-c2coc3cc(O)c(CC=C(C)C)c(O)c3c2=O)c1O = 5.22
• CC(C)=CCc1cc(-c2coc3cc(O)c(CC=C(C)C)c(O)c3c2=O)cc(O)c1O = 5.18
• COc1cc2c(c(OC)c1CC=C(C)C)C[C@H](c1ccc(O)cc1O)CO2 = 5.17
• COc1c(CC=C(C)C)c(O)cc2c1C[C@H](c1ccc(O)c(CC=C(C)C)c1O)CO2 = 5.28
• CC(C)=CCc1c(O)cc2occ(-c3ccc(O)c(O)c3)c(=O)c2c1O = 5.15
• CCc1c2c(nc3ccc(OC(=O)N4CCC(N5CCCCC5)CC4)cc13)-c1cc3c(c(=O)n1C2)COC(=O)[C@]3(O)CC = 6.30
